Tested on: genotype 1b HCV replicon in Huh-7 cells
procedure.summary: HCV replicon luciferase assay, genotype 1b
Assay type: cell-based
conditions.used: Hepatitis C virus, 72 h, Huh-7, Renilla luciferase, 3 days, read-out: EC50 1b (class)
pEC50: −log10 of the molar value.
Kindly state pEC50 for each of the entries shown.

{"columns": ["molecule", "reported"],
 "data": [
  ["CNC(=O)c1c(-c2ccc(F)cc2)oc2cc3c(cc12)-c1cc(cc(C(=O)NC(C)(C)C)c1)NC(=O)OCCOCCOC(=O)N3 [Compound 1055]", "< 6.00"],
  ["CNC(=O)c1c(-c2ccc(F)cc2)oc2cc3c(cc12)-c1cc(cc(C(=O)NC(C)(C)C)c1)NC(=O)CCCCC(=O)N3 [Compound 1051]", "< 6.00"],
  ["CNC(=O)c1c(-c2ccc(F)cc2)oc2cc3c(cc12)-c1cc(cc(C(=O)NC(C)(C)C)c1)NC(=O)CCCCCCCCCCC(=O)N3 [Compound 1053]", "6.00 to 7.00"]
]}

Would you be so kind as to report pEC50 for each listed record?
1. CNC(=O)c1c(-c2ccc(F)cc2)oc2cc3c(cc12)-c1cc(cc(C(=O)NC(C)(C)C)c1)NC(=O)OCCOCCOCCOC(=O)N3 [Compound 1056]
2. CNC(=O)c1c(-c2ccc(F)cc2)oc2cc3c(cc12)-c1cc(cc(C(=O)NC(C)(C)C)c1)NC(=S)NCCCCNC(=S)N3 [Compound 1057]
3. CNC(=O)c1c(-c2ccc(F)cc2)oc2cc3c(cc12)-c1cc(cc(C(=O)NC(C)(C)C)c1)NC(=O)CCCCCCCCC(=O)N3 [Compound 1052]
4. CNC(=O)c1c(-c2ccc(F)cc2)oc2cc3c(cc12)-c1cc(C(=O)NC(C)(C)C)cc(c1)N(S(C)(=O)=O)CCCCN3S(C)(=O)=O [Compound 1001]
5. CNC(=O)c1c(-c2ccc(F)cc2)oc2cc3c(cc12)-c1cc(C(=O)NC(C)(C)C)cc(c1)N(S(C)(=O)=O)CCc1ccc(cc1)CCN3S(C)(=O)=O [Compound 1006]

Response line:
1. < 6.00
2. < 6.00
3. 6.00 to 7.00
4. 6.00 to 7.00
5. < 6.00
